Each record here notes measured AUC(0-inf).
Assay method text: AUC (infinity) in ICR mouse at 50 mg/kg, ip
Type: ADME, organism-based
Design: dose 50 mg/kg, route intraperitoneal, time infinity
Experimental context: in vivo
Lab book: enter the figure in µM·h, no units written.

# Chemical smiles, Result unit, AUC(0-inf)
records = [
    ("C[C@@H]1CN(c2cc(F)c3c(c2)N(C)C(=O)C32CCN(c3nc4c(c(=O)[nH]3)CCCN4C)CC2)C[C@H](C)O1", "µM·h", 607),
]

Query: // lookup AUC(0-inf) for CN1CCN(c2cc(F)c3c(c2)N(C)C(=O)C32CCN(c3nc4c(c(=O)[nH]3)CCCN4C)CC2)CC1
Result: 207
